Values from PubChem BioAssay (NCI)

Parameter: growth inhibition. Scope: all listed entries.
Assay: NCI Yeast Anticancer Drug Screen. Data for the bub3 strain (AID 167)
Settings: S. cerevisiae bub3 mutant strain, at 5.0 µM (retest, dose inferred, filed as 0.5), stronger effect = higher value
Method: Growth inhibition of yeast strains with defined genetic alterations is measured as a screen for potential anti-cancer activity. Selected strains with alterations in DNA damage repair or cell cycle control were exposed to compounds and growth inhibition was measured relative to vehicle treated controls. The strain used in this assay is bub3
This is part of a sample that, as a whole, favours compounds with a hit. Of some 79,000 tested, about 15% had one in any assay.
Lab book: enter the figure in %, no units written.

Known results for compounds:
COMPOUND	REPORTED_METRIC	TEST_RESULT
COc1cc(C2c3cc4c(cc3[C@@H](Nc3cccc(O)c3)C3COC(=O)[C@H]23)OCO4)cc(OC)c1O (stereo partly specified)	growth inhibition	21
NN(c1ccccc1)c1cccc2ccccc12	growth inhibition	-1
Clc1ccc(OCC(Cn2ccnc2)c2ccc(Cl)cc2)cc1 (stereo unspecified)	growth inhibition	73
COc1cc(C2C(C(=O)Nc3ccc(Cl)c(Cl)c3)=C(C)NC(C)=C2C(=O)Nc2ccc(Cl)c(Cl)c2)ccc1O	growth inhibition	13
N#C/C(=C\NC(=S)Nc1cc(Cl)ccc1Cl)c1nc2ccccc2s1	growth inhibition	7
CCOC(=O)/C(=C\c1ccc([N+](=O)[O-])cc1)C(C)=O	growth inhibition	40
O=C(Nc1ccc(Cl)cc1)Nc1nnc2nc(C(C(=O)/C=C/c3ccccc3)c3nc4nnc(NC(=O)Nc5ccc(Cl)cc5)n4[nH]c3=O)c(=O)[nH]n12	growth inhibition	-11
O=C1CSC(=Nc2ccc(F)cc2F)N1Cc1cccs1	growth inhibition	41

# lookup: growth inhibition of O=C1C(Cl)=C(Cl)C(=C2C(Cl)=C(Cl)C(=O)C(Cl)=C2Cl)C(Cl)=C1Cl
79

# lookup: growth inhibition of CN(C)C(=S)/N=c1\ss/c(=N\C(=S)N(C)C)n1-c1ccc(Cl)cc1
3

# lookup: growth inhibition of COc1ccc(N=Cc2ccccc2O)cc1
-27

# lookup: growth inhibition of CC(C)(C)NCc1cc(Nc2ccnc3cc(Cl)ccc23)cc(-c2ccc(Cl)cc2)c1O
7

# lookup: growth inhibition of ClC(Cl)(Cl)/C=C/c1cnc2ccccc2n1
-3

# lookup: growth inhibition of CCN(CC)c1ccc2nc3ccc(N(CC)CC)cc3[n+](-c3ccccc3)c2c1
98

# lookup: growth inhibition of CC(N)C1C(C)CC2C3CC=C4CC(O)CCC4(C)C3CCC21C (stereo unspecified)
52

# lookup: growth inhibition of CC(=O)NC1CCCCC1c1ccc(C2CCCCC2NC(C)=O)cc1 (stereo unspecified)
-4

# lookup: growth inhibition of CCC(=O)[O][Bi]([c]1ccccc1)[c]1ccccc1
81

# lookup: growth inhibition of CCOC(=O)c1sc2[n+](c1C)C(=O)/C(=C/c1ccc([N+](=O)[O-])cc1)S2
-23

# lookup: growth inhibition of O=C1c2ccc3ccccc3c2CCC1[n+]1ccc2ccccc2c1 (stereo unspecified)
-4

# lookup: growth inhibition of O=C(CN1CCOCC1)Nc1nc(-c2ccc(Cl)cc2)cs1
65

# lookup: growth inhibition of O=c1oc(-c2ccc(Cl)cc2[N+](=O)[O-])nc2ccccc12
-6

* * *

test: NCI Yeast Anticancer Drug Screen. Data for the mlh1 rad18 strain (AID 175); conditions: S. cerevisiae mlh1 rad18 strain growth inhibition; at 5.0 µM (retest, dose inferred, filed as 0.5); stronger effect = higher value
Compounds without any hit were thinned out: in the full panel of roughly 79,000, 15% have a hit. Active and inactive are the calls of the source. No stated cut-off is given here; in the data, active means growth inhibition above about 70%; inactive means the rest.
REPORTED_METRIC: growth inhibition

COMPOUND	growth inhibition
CCCC(C(=O)OCCN1CCCC1(C)C)C1CCCC1 (stereo not given)	36% (inactive)
O=CC(=C\c1ccco1)/C(C=O)=C\c1ccco1	21% (inactive)
CCOC(=O)/C(=C\c1ccc([N+](=O)[O-])cc1)C(C)=O	30% (inactive)
Cc1cc(NS(=O)(=O)c2ccc(N)cc2)no1.[Ag]	99% (active)

Then this compound:
# lookup: growth inhibition of CCCCCCCCCCCCCCNC(=O)CCC(NC(=O)c1ccc(N(C)Cc2cnc3nc(N)nc(N)c3n2)cc1)C(=O)NCCCCCCCCCCCCCC (stereo not given)
24% (inactive)
